# experimental.target: Mitogen-activated protein kinase 1 (Homo sapiens, UniProt P28482)
# Sequence (P28482 whole entry): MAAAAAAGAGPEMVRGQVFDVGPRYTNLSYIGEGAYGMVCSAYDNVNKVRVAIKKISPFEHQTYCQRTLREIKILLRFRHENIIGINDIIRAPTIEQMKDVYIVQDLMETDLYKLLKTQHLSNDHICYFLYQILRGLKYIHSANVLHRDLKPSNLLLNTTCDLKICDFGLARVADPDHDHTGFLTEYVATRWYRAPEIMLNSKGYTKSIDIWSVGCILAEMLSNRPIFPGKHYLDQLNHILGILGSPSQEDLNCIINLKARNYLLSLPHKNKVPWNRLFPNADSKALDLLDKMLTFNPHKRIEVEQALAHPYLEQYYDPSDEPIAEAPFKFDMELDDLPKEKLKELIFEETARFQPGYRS
# assay.info: Photometric_Method2

query.smiles	Ki (nM)
Cc1cnc(Nc2ccc(Cl)cc2Cl)nc1-c1c[nH]c(C(=O)N[C@H](CO)c2ccccc2)c1	7.9
Cc1cccc([C@@H](CO)NC(=O)c2cc(-c3nc(Nc4cccc(F)c4C)ncc3C)c[nH]2)c1	7.9
Cc1cnc(N[C@@H](CO)CC(F)(F)F)nc1-c1c[nH]c(C(=O)N[C@H](CO)c2cccc(Cl)c2)c1	7.9
Cc1cnc(NC2CCOCC2)nc1-c1c[nH]c(C(=O)N[C@H](CO)c2cccc(Cl)c2)c1	7.9
Cc1ccc(Nc2ncc(C)c(-c3c[nH]c(C(=O)N[C@H](CO)c4cccc(Cl)c4)c3)n2)cc1	7.1
Cc1cnc(NN2CCCC2)nc1-c1c[nH]c(C(=O)N[C@H](CO)c2cccc(Cl)c2)c1	7.1
Cc1cnc(Nc2cccc3c2OC(F)(F)O3)nc1-c1c[nH]c(C(=O)N[C@H](CO)c2ccccc2)c1	7.9
Cc1cnc(N[C@H]2CCCC[C@H]2O)nc1-c1c[nH]c(C(=O)N[C@H](CO)c2ccccc2)c1	7.1
CCOC(=O)N1CCC(Nc2ncc(Cl)c(-c3c[nH]c(C(=O)N[C@H](CO)c4cccc(Cl)c4)c3)n2)CC1	7.1
Cc1cnc(NCCc2ccccc2)nc1-c1c[nH]c(C(=O)N[C@H](CO)c2ccccc2)c1	7.1
Cc1cnc(NN(C)C)nc1-c1c[nH]c(C(=O)N[C@H](CO)c2ccccc2)c1	7.1
Cc1cnc(N[C@H]2CCC[C@H]2O)nc1-c1c[nH]c(C(=O)N[C@H](CO)c2cccc(Cl)c2)c1	7.1
